Catalogue of binders with associated pKd
tested system: T1, human IL-6 (human, UniProt P05231 30-212)
T1 construct: also called interleukin-6
T1 sequence (P05231 30-212 limits assumed): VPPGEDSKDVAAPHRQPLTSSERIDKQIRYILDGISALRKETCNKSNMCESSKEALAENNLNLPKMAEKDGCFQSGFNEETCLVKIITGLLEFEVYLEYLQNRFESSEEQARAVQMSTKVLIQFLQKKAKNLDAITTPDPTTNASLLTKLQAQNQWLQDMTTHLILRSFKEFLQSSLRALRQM
test method notes: SPR (Biacore T200), antibody from cell supernatant captured on Protein A, IL-6 flowed over, 37 C
pKd: −log10 of the molar value.
experimental readout: pKd

{"binder": "anti-IL-6 antibody, heavy chain S35A, G66D / light chain WT (antibody, human IgG1, V domains shown, Derived as m2; Engineered human IgG1) VH: EVQLVESGGGLVQPGGSLRLSCAASGFTFSPFAMAWVRQAPGKGLEWVAKISPGGSWTYYSDTVTDRFTFSLDTSKSTAYLQMNSLRAEDTAVYYCARQLWGYYALDIWGQGTLVTVSS VL: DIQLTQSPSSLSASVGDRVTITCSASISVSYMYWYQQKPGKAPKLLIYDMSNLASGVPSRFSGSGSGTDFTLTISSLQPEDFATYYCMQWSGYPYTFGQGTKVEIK", "experimental readout": "pKd", "measured result": 9.52}
{"binder": "anti-IL-6 antibody, heavy chain T65P, G66D / light chain WT (antibody, human IgG1, V domains shown, Derived as m2; Engineered human IgG1) VH: EVQLVESGGGLVQPGGSLRLSCAASGFTFSPFAMSWVRQAPGKGLEWVAKISPGGSWTYYSDTVPDRFTFSLDTSKSTAYLQMNSLRAEDTAVYYCARQLWGYYALDIWGQGTLVTVSS VL: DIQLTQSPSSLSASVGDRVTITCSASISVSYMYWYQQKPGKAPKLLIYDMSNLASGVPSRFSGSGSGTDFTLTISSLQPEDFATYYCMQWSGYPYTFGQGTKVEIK", "experimental readout": "pKd", "measured result": 9.43}
{"binder": "anti-IL-6 antibody, heavy chain T65R, G66D / light chain WT (antibody, human IgG1, V domains shown, Derived as m2; Engineered human IgG1) VH: EVQLVESGGGLVQPGGSLRLSCAASGFTFSPFAMSWVRQAPGKGLEWVAKISPGGSWTYYSDTVRDRFTFSLDTSKSTAYLQMNSLRAEDTAVYYCARQLWGYYALDIWGQGTLVTVSS VL: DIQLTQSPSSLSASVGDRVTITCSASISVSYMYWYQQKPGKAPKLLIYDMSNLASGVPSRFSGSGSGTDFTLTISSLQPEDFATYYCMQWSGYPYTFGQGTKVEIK", "experimental readout": "pKd", "measured result": 9.65}
{"binder": "anti-IL-6 antibody, heavy chain T63W, G66D / light chain WT (antibody, human IgG1, V domains shown, Derived as m2; Engineered human IgG1) VH: EVQLVESGGGLVQPGGSLRLSCAASGFTFSPFAMSWVRQAPGKGLEWVAKISPGGSWTYYSDWVTDRFTFSLDTSKSTAYLQMNSLRAEDTAVYYCARQLWGYYALDIWGQGTLVTVSS VL: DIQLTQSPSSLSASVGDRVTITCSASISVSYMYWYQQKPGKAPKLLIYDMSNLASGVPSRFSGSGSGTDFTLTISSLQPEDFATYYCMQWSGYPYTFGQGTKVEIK", "experimental readout": "pKd", "measured result": 9.60}
{"binder": "anti-IL-6 antibody, heavy chain S35T, G66D / light chain WT (antibody, human IgG1, V domains shown, Derived as m2; Engineered human IgG1) VH: EVQLVESGGGLVQPGGSLRLSCAASGFTFSPFAMTWVRQAPGKGLEWVAKISPGGSWTYYSDTVTDRFTFSLDTSKSTAYLQMNSLRAEDTAVYYCARQLWGYYALDIWGQGTLVTVSS VL: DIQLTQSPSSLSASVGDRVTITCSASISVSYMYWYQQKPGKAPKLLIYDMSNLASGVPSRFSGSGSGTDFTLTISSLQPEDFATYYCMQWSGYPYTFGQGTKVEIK", "experimental readout": "pKd", "measured result": 9.53}
